Assay: Selectivity index, ratio of GI50 for human MCF7 cells to MIC90 for Mycobacterium bovis BCG ATCC 35743 dormant stage
Format: toxicity, cell-based
Settings: read-out: Selectivity Index
Label class 0 if selectivity ratio falls below 5; label class 1 in every other case.

As a guide, the following entries are already answered.
compound	answer_label
C/C(=N\Nc1nc(-c2ccc(F)cc2)cs1)c1sc(-c2ccccc2)nc1C	class 0
C/C(=N\Nc1nc(-c2ccc(Br)cc2)cs1)c1sc(C)nc1C	class 1
C/C(=N\NC(N)=S)c1sc(C)nc1C	class 0

Prompt: Hello, I need to know if C/C(=N\Nc1nc(-c2ccc(Cl)cc2)cs1)c1sc(C)nc1C has measured selectivity ratio not below 5. Thanks!
Completion: class 1

Prompt: Hello, I need to know if C/C(=N\Nc1nc(-c2ccc(C)cc2)cs1)c1sc(C)nc1C has measured selectivity ratio not below 5. Thanks!
Completion: class 1

Prompt: Hello, I need to know if COc1ccc(-c2csc(N/N=C(\C)c3sc(-c4ccccc4)nc3C)n2)cc1 has measured selectivity ratio not below 5. Thanks!
Completion: class 1

Prompt: Hello, I need to know if C/C(=N\Nc1nc(-c2ccccc2)cs1)c1sc(C)nc1C has measured selectivity ratio not below 5. Thanks!
Completion: class 1

Prompt: Hello, I need to know if C/C(=N\Nc1nc(-c2ccc(C)cc2)cs1)c1sc(-c2ccccc2)nc1C has measured selectivity ratio not below 5. Thanks!
Completion: class 0

Prompt: Hello, I need to know if C/C(=N\Nc1nc(-c2ccc(F)cc2)cs1)c1sc(C)nc1C has measured selectivity ratio not below 5. Thanks!
Completion: class 1

Prompt: Hello, I need to know if C/C(=N\Nc1nc(-c2ccc(Cl)cc2)cs1)c1sc(-c2ccccc2)nc1C has measured selectivity ratio not below 5. Thanks!
Completion: class 0

Prompt: Hello, I need to know if COc1ccc(-c2csc(N/N=C(\C)c3sc(C)nc3C)n2)cc1 has measured selectivity ratio not below 5. Thanks!
Completion: class 1

Prompt: Hello, I need to know if C/C(=N\NC(N)=S)c1sc(-c2ccccc2)nc1C has measured selectivity ratio not below 5. Thanks!
Completion: class 1

----------
Assay: Antitubercular activity against Mycobacterium bovis BCG ATCC 35743 active stage measured on day 8 by nitrate reductase based two-fold dilution assay
Format: functional, Mycobacterium bovis BCG str. ATCC 35743
Settings: Mycobacterium tuberculosis variant bovis BCG, ATCC 35743, 192 h
Known log10 of IC50 of a selection of compounds
Note the log scale: values are log10 of IC50 expressed in µg/mL.

Here's what some known entries look like.
compound	recorded_result
C/C(=N\Nc1nc(-c2ccc(Br)cc2)cs1)c1sc(C)nc1C	0.20
C/C(=N\Nc1nc(-c2ccc(Cl)cc2)cs1)c1sc(-c2ccccc2)nc1C	1.23
C/C(=N\Nc1nc(-c2ccc(F)cc2)cs1)c1sc(C)nc1C	0.78
C/C(=N\Nc1nc(-c2ccccc2)cs1)c1sc(-c2ccccc2)nc1C	0.94
C/C(=N\Nc1nc(-c2ccc(C)cc2)cs1)c1sc(C)nc1C	1.25
C/C(=N\Nc1nc(-c2ccc(C)cc2)cs1)c1sc(-c2ccccc2)nc1C	0.72

// next entry
Prompt: I'd like to know its log10 of IC50. The compound in question is CO[C@H]1/C=C/O[C@@]2(C)Oc3c(C)c(O)c4c(O)c(c(/C=N/N5CCN(C)CC5)c(O)c4c3C2=O)NC(=O)/C(C)=C\C=C\[C@H](C)[C@H](O)[C@@H](C)[C@@H](O)[C@@H](C)[C@H](OC(C)=O)[C@@H]1C [RIFAMPIN]
Completion: -0.35

----------
Experiment: Selectivity index, ratio of GI50 for human MCF7 cells to MIC90 for Mycobacterium tuberculosis H37Ra ATCC 25177 dormant stage
Assay type: toxicity, cell-based
Settings: read-out: Selectivity Index
observation_type: selectivity ratio
Give the figure only, with no unit attached.

Prompt: I'd like to know its selectivity ratio. The molecule in question is COc1ccc(-c2csc(N/N=C(\C)c3sc(C)nc3C)n2)cc1
Completion: 5

Prompt: I'd like to know its selectivity ratio. The molecule in question is C/C(=N\Nc1nc(-c2ccc(F)cc2)cs1)c1sc(C)nc1C
Completion: 2

Prompt: I'd like to know its selectivity ratio. The molecule in question is C/C(=N\Nc1nc(-c2ccc(Cl)cc2)cs1)c1sc(C)nc1C
Completion: 1

Prompt: I'd like to know its selectivity ratio. The molecule in question is COc1ccc(-c2csc(N/N=C(\C)c3sc(-c4ccccc4)nc3C)n2)cc1
Completion: 14

Prompt: I'd like to know its selectivity ratio. The molecule in question is C/C(=N\Nc1nc(-c2ccccc2)cs1)c1sc(C)nc1C
Completion: 6

Prompt: I'd like to know its selectivity ratio. The molecule in question is C/C(=N\NC(N)=S)c1sc(C)nc1C
Completion: 3

Prompt: I'd like to know its selectivity ratio. The molecule in question is C/C(=N\NC(N)=S)c1sc(-c2ccccc2)nc1C
Completion: 13

Prompt: I'd like to know its selectivity ratio. The molecule in question is C/C(=N\Nc1nc(-c2ccc(C)cc2)cs1)c1sc(C)nc1C
Completion: 2

Prompt: I'd like to know its selectivity ratio. The molecule in question is C/C(=N\Nc1nc(-c2ccc(F)cc2)cs1)c1sc(-c2ccccc2)nc1C
Completion: 1

Prompt: I'd like to know its selectivity ratio. The molecule in question is C/C(=N\Nc1nc(-c2ccc(C)cc2)cs1)c1sc(-c2ccccc2)nc1C
Completion: 1

----------
Assay: Antitubercular activity against Mycobacterium tuberculosis H37Ra ATCC 25177 active stage infected in human THP1 cells measured on day 8 by nitrate reductase assay
Type: functional, THP-1
Details: ATCC 25177, 192 h
Criterion: MIC90 strictly less than 30 µg/mL. Met: t. Not met: f.

compound	answer_label
C/C(=N\Nc1nc(-c2ccc(C)cc2)cs1)c1sc(-c2ccccc2)nc1C	f
C/C(=N\Nc1nc(-c2ccc(Br)cc2)cs1)c1sc(-c2ccccc2)nc1C	f
C/C(=N\Nc1nc(-c2ccc(C)cc2)cs1)c1sc(C)nc1C	f
COc1ccc(-c2csc(N/N=C(\C)c3sc(-c4ccccc4)nc3C)n2)cc1	t
C/C(=N\NC(N)=S)c1sc(C)nc1C	f
CO[C@H]1/C=C/O[C@@]2(C)Oc3c(C)c(O)c4c(O)c(c(/C=N/N5CCN(C)CC5)c(O)c4c3C2=O)NC(=O)/C(C)=C\C=C\[C@H](C)[C@H](O)[C@@H](C)[C@@H](O)[C@@H](C)[C@H](OC(C)=O)[C@@H]1C	t

Prompt: Could you please tell me whether MIC90 recorded for C/C(=N\Nc1nc(-c2ccc(F)cc2)cs1)c1sc(C)nc1C is less than 30 µg/mL?
Completion: f

Prompt: Could you please tell me whether MIC90 recorded for C/C(=N\NC(N)=S)c1sc(-c2ccccc2)nc1C is less than 30 µg/mL?
Completion: t

Prompt: Could you please tell me whether MIC90 recorded for C/C(=N\Nc1nc(-c2ccccc2)cs1)c1sc(C)nc1C is less than 30 µg/mL?
Completion: f

Prompt: Could you please tell me whether MIC90 recorded for C/C(=N\Nc1nc(-c2ccc(Br)cc2)cs1)c1sc(C)nc1C is less than 30 µg/mL?
Completion: f

Prompt: Could you please tell me whether MIC90 recorded for C/C(=N\Nc1nc(-c2ccc(Cl)cc2)cs1)c1sc(-c2ccccc2)nc1C is less than 30 µg/mL?
Completion: f

Prompt: Could you please tell me whether MIC90 recorded for C/C(=N\Nc1nc(-c2ccccc2)cs1)c1sc(-c2ccccc2)nc1C is less than 30 µg/mL?
Completion: t

Prompt: Could you please tell me whether MIC90 recorded for C/C(=N\Nc1nc(-c2ccc(Cl)cc2)cs1)c1sc(C)nc1C is less than 30 µg/mL?
Completion: f

Prompt: Could you please tell me whether MIC90 recorded for C/C(=N\Nc1nc(-c2ccc(F)cc2)cs1)c1sc(-c2ccccc2)nc1C is less than 30 µg/mL?
Completion: f

Prompt: Could you please tell me whether MIC90 recorded for COc1ccc(-c2csc(N/N=C(\C)c3sc(C)nc3C)n2)cc1 is less than 30 µg/mL?
Completion: f

----------
Experiment: Selectivity index, ratio of GI50 for human THP1 cells to MIC90 for Mycobacterium tuberculosis H37Ra ATCC 25177 active stage
Format: toxicity, cell-based, THP-1
Details: read-out: Selectivity Index
Label 0 if selectivity ratio falls below 2; label 1 in every other case.

As a guide, the following entries are already answered.
compound	answer_label
C/C(=N\Nc1nc(-c2ccccc2)cs1)c1sc(-c2ccccc2)nc1C	1
C/C(=N\Nc1nc(-c2ccc(F)cc2)cs1)c1sc(-c2ccccc2)nc1C	0
C/C(=N\Nc1nc(-c2ccc(Cl)cc2)cs1)c1sc(C)nc1C	1

Prompt: Hello, I need to know if C/C(=N\NC(N)=S)c1sc(-c2ccccc2)nc1C has measured selectivity ratio not below 2. Thanks!
Completion: 1

Prompt: Hello, I need to know if C/C(=N\Nc1nc(-c2ccc(Cl)cc2)cs1)c1sc(-c2ccccc2)nc1C has measured selectivity ratio not below 2. Thanks!
Completion: 0

These measurements were taken from ChEMBL document CHEMBL3872252.
